The next entries give measured pKi for human ER-β (Homo sapiens).
Scale: pKi equals -log10([C]), with [C] in mol/L.

Value of measured pKi for the entry Oc1ccc2c(c1)OCC(c1ccccc1)=C2Cc1ccc(OCCN2CCCCC2)cc1 : 9.80

Value of measured pKi for the entry COc1ccc(C2=C(Cc3ccc(OCCN4CCCCC4)cc3)c3ccc(O)cc3OC2)cc1.Cl [Compound II, hydrochloride] : 10.00

----------
For each entry below, report its Ki value.
# Assay system: human ER-α (Homo sapiens)
# Sequence (P03372 whole entry): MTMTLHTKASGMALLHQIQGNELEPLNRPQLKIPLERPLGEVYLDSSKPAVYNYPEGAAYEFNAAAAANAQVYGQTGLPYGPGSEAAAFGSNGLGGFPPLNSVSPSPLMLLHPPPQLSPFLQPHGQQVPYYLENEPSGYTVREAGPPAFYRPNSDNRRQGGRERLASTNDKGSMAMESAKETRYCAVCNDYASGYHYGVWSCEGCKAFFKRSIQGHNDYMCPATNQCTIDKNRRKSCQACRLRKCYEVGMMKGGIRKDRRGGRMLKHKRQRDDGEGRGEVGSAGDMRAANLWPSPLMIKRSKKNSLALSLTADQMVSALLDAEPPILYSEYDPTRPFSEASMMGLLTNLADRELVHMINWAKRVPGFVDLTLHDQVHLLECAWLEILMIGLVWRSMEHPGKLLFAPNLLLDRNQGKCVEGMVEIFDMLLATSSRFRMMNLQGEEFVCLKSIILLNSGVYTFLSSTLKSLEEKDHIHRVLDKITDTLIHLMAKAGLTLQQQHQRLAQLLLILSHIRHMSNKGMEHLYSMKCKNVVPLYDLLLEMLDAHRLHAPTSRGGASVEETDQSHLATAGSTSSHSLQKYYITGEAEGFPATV
# Assay method text: Human estrogen receptor-α binding
Kindly provide the numeric value in pM only, without the unit symbol.

Value of measured Ki for the entry Oc1ccc2c(c1)OCC(c1ccccc1)=C2Cc1ccc(OCCN2CCCCC2)cc1 : 41

Value of measured Ki for the entry COc1ccc(C2=C(Cc3ccc(OCCN4CCCCC4)cc3)c3ccc(O)cc3OC2)cc1.Cl [Compound II, hydrochloride] : 17

----------
# Assay method text: Solubility in water
# Format: physicochemical
# Reported conditions: r.t.
Reported metric: solubility

Value of measured solubility for the entry CS(=O)(=O)O.Oc1ccc2c(c1)OCC(c1ccccc1)=C2Cc1ccc(OCCN2CCCCC2)cc1 : > 1000 µg/mL
